- assayText: ATG_CMV_CIS: Attagene CIS-FACTORIAL HepG2 Assay for human CMV (Internal Marker) (AID 2282928);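 note: endpoint acts as a background internal control marker rather than a target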
- conditionSet: HepG2 CMV promoter reporter, transcription factor profiling; actives raise or lower the signal
Activity calls are given as the source filed them. Rule for the calls: active = hit-call score of the fitted dose curve at least 0.9, where 1 is the maximum; inactive = score below 0.9.
Outcomes: active, inactive

compound	classAssignment
Cc1ccc2nc3sc(=O)sc3nc2c1	inactive
CC(C)CP(=S)(S)CC(C)C	inactive
CC(C)[C@H](C(=O)OC(C#N)c1cccc(Oc2ccccc2)c1)c1ccc(OC(F)F)cc1 (some centres undefined)	inactive
CCCSP(=S)(OCC)Oc1ccc(SC)cc1 (centres undefined)	inactive
Cl[C@H]1OCCO[C@@H]1Cl	inactive
OCC(c1ccc(Cl)cc1)c1ccc(Cl)cc1	active
O=C(O)c1cc(I)cc(I)c1I	inactive
CC1(C)[C@H](C(=O)O[C@H](C#N)c2cccc(Oc3ccccc3)c2)[C@@H]1/C=C(\Cl)C(F)(F)F	inactive
FC(F)OCC(F)(F)C(F)(F)F	inactive
CC(=O)C(F)(F)C(F)(F)F	inactive
c1csc(-c2ccc(-c3cccs3)s2)c1	inactive
N#Cc1cccnc1	inactive
CN(C)CCN(C)C	inactive
O=[N+]([O-])c1cccc2ccccc12	inactive
COC(=O)Nc1cccc(OC(=O)Nc2cccc(C)c2)c1	inactive
CC(C)=CC1C(C(=O)OCc2cccc(Oc3ccccc3)c2)C1(C)C (centres undefined)	inactive
O=C(NC(=O)c1c(F)cccc1F)Nc1ccc(Cl)cc1	inactive
NC(=O)CCl	inactive
CCN(N=O)C(N)=O	inactive
C#CCO	inactive
CC(C)(C#N)N=NC(C)(C)C#N	inactive
CCCCCCCCCCCCc1cccc(S(=O)(=O)O)c1	inactive
N#Cc1ccc(Cl)cc1	inactive
COC(F)(C(F)(F)C(F)(F)F)C(F)(C(F)(F)F)C(F)(F)F (centres undefined)	inactive
CCN(CCO)CCO	inactive
Clc1cccc(Cl)c1Cl	inactive
O=S1OC[C@@H]2[C@H](CO1)[C@]1(Cl)C(Cl)=C(Cl)[C@@]2(Cl)C1(Cl)Cl (some centres undefined)	active
CCCCN(CCCC)C(=S)S	active
c1ccc2sc(SNC3CCCCC3)nc2c1	inactive

---

- assayText: CCTE_Mundy_HCI_Cortical_Synap_Neur_Matur_NeuriteSpotCountPerNeuriteLength: CCTE's Synaptogenesis and Neurite Maturation Assay in rat cortical cells for Neurite Spot Count per Neurite Length, Mundy Lab (AID 2284210)
Active and inactive are the calls of the source. The calls were made as follows: active = hit-call score of the fitted dose curve at least 0.9, where 1 is the maximum; inactive = score below 0.9.
Outcomes: 1 for active, -1 for inactive

compound	classAssignment
CS(=O)(=O)c1ccc(C(=O)C2C(=O)CCCC2=O)c(Cl)c1COCC(F)(F)F	-1
CC(C)[C@@H](Nc1ccc(C(F)(F)F)cc1Cl)C(=O)OC(C#N)c1cccc(Oc2ccccc2)c1 (some centres undefined)	-1
CNC(=O)CSP(=O)(OC)OC	-1
OC(Cc1ccccc1Cl)(Cn1[nH]cnc1=S)C1(Cl)CC1 (centres undefined)	1

---

- testedTarget: Hepatocyte nuclear factor 3-beta (Homo sapiens)
- assayText: ATG_FoxA2_CIS: Attagene CIS-FACTORIAL HepG2 Assay for human Forkhead box A2 (FOXA2) (AID 2282942)
- conditionSet: HepG2 cis-reporter transcription factor activity, 24 h; actives raise or lower the signal
Calls of active or inactive are those of the source. Rule for the calls: active = hit-call score of the fitted dose curve at least 0.9, where 1 is the maximum; inactive = score below 0.9.
Outcomes: active, inactive

molecule	classAssignment
N#Cc1ccc(Cl)cc1	inactive
BrCc1ccc(Br)cc1	inactive
Cc1ccc2nc3sc(=O)sc3nc2c1	active
NC(=O)CCl	inactive
C=CCc1ccccc1O	inactive
C=CC(F)(C(F)(F)F)C(F)(F)C(F)(F)F (centres undefined)	inactive
O=C(O)C1(c2ccc3c(c2)OC[C@H](Cc2ccc(-c4ccccc4)cc2)[C@H]3O)CCCC1	inactive
CCCCCCCCBr	inactive
Cc1ccc(OP(=O)(Oc2ccc(C)cc2C)Oc2ccc(C)cc2C)c(C)c1	inactive
CCCCOC(C)=O	inactive
C=CC(=O)OCC(COC(=O)C=C)(COC(=O)C=C)COC(=O)C=C	inactive
CCCSP(=S)(OCC)Oc1ccc(Cl)cc1Cl (centres undefined)	inactive
CCC(C)(C#N)N=NC(C)(C#N)CC (centres undefined)	inactive
Nc1nc(=S)[nH][nH]1	inactive

---

- assayText: CCTE_Mundy_HCI_Cortical_Synap_Neur_Matur_CellBodySpotCount: CCTE's Synaptogenesis and Neurite Maturation Assay in rat cortical cells for Cell Body Spot Count, Mundy Lab (AID 2284223)
Active and inactive are the calls of the source. The calls were made as follows: active = hit-call score of the fitted dose curve at least 0.9, where 1 is the maximum; inactive = score below 0.9.
Outcomes: active, inactive

itemSmiles	classAssignment
CC1(C)[C@H](C(=O)O[C@H](C#N)c2cccc(Oc3ccccc3)c2)[C@@H]1/C=C(\Cl)C(F)(F)F	active
NC(=O)c1ccc(N)nc1	inactive
CNC(=O)CSP(=O)(OC)OC	inactive
Cc1cc(C(F)(C(F)(F)F)C(F)(F)F)ccc1NC(=O)c1cccc(I)c1C(=O)NC(C)(C)CS(C)(=O)=O	inactive
Cc1ccccc1OP(=O)(Oc1ccccc1C)Oc1ccccc1C	active
CS(=O)(=O)c1ccc(C(=O)C2C(=O)CCCC2=O)c(Cl)c1COCC(F)(F)F	inactive

---

- testedTarget: Nuclear respiratory factor 1 (Homo sapiens) (UniProt Q16656)
- Sequence (Q16656 whole entry, looked up): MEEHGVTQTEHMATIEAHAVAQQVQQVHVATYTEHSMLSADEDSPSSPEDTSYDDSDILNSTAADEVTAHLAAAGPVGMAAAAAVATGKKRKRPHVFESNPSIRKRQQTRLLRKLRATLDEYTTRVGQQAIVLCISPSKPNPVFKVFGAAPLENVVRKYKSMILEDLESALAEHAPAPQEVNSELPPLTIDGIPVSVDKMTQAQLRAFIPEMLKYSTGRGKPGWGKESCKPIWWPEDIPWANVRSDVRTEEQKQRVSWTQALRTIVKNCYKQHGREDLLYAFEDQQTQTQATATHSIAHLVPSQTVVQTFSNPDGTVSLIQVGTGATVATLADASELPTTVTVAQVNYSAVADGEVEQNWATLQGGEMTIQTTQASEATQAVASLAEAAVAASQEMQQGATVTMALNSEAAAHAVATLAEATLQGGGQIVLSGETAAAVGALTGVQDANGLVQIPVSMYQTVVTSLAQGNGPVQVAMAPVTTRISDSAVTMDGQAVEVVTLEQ
- assayText: ATG_NRF1_CIS: Attagene CIS-FACTORIAL HepG2 Assay for human Nuclear Respiratory Factor 1 (NRF1) Orphan Gene (AID 2282987)
- conditionSet: HepG2 NRF1 cis-element reporter, Attagene multiplex; actives raise or lower the signal
Calls of active or inactive are those of the source. The calls were made as follows: active = hit-call score of the fitted dose curve at least 0.9, where 1 is the maximum; inactive = score below 0.9.
Outcomes: Y for active, N for inactive

molecule	classAssignment
OCC(c1ccc(Cl)cc1)c1ccc(Cl)cc1	N
C1CCC(C2CCCCC2)CC1	N
O=S(=O)(Oc1ccc(Cl)cc1)c1ccc(Cl)cc1	N
N#CCCC(Br)(C#N)CBr (stereo not drawn)	N
O=C/C(Cl)=C(/Cl)C(=O)O	N
Nc1nc(=S)[nH][nH]1	N
C#CCOC(=O)/C=C(C)/C=C/CC(C)CCCC(C)C (stereo not drawn)	N
CC(C)CP(=S)(S)CC(C)C	N
O=[N+]([O-])c1cc([As](=O)(O)O)ccc1O	N
Cc1cc(C)cc(C)c1	N
Cc1cc(SCc2sc(-c3ccc(C(F)(F)F)c(F)c3)nc2C)ccc1OCC(=O)O	N
O=C(CCl)Nc1ccccc1	Y
Cc1cc(C(F)(C(F)(F)F)C(F)(F)F)ccc1NC(=O)c1cccc(I)c1C(=O)NC(C)(C)CS(C)(=O)=O	N

---

- assayText: CEETOX_H295R_DOC: CeeTox H295R High-throughput Steroidogenesis Assay for DOC (AID 2283439)
- conditionSet: actives raise or lower the signal
Calls of active or inactive are those of the source. Rule for the calls: active = hit-call score of the fitted dose curve at least 0.9, where 1 is the maximum; inactive = score below 0.9.
Outcomes: active, inactive

compound	classAssignment
CC(C)(COCC1CO1)COCC1CO1 (configuration not stated)	inactive
O=S1OC[C@@H]2[C@H](CO1)[C@]1(Cl)C(Cl)=C(Cl)[C@@]2(Cl)C1(Cl)Cl (some centres not stated)	active
CCOCn1c(-c2ccc(Cl)cc2)c(C#N)c(Br)c1C(F)(F)F	inactive
Cc1ccccc1OP(=O)(Oc1ccccc1C)Oc1ccccc1C	inactive
CCCCCCCCCCCCN(C)C	inactive
C[C@]12CC[C@@H](O)C[C@@H]1CC[C@@H]1[C@@H]2CC[C@]2(C)C(=O)CC[C@@H]12	active
CCOP(=S)(OCC)O/N=C(\C#N)c1ccccc1	active
CCOP(=O)(OCC)OC(=CCl)c1ccc(Cl)cc1Cl	active
Oc1cccc(-c2ccccc2)c1	inactive
COC(=O)Nc1cccc(OC(=O)Nc2cccc(C)c2)c1	active
CCC[CH2][Sn]([Cl])([Cl])[CH2]CCC	inactive
O=[N+]([O-])c1ccc(Nc2ccccc2)cc1	inactive

---

- assayText: CCTE_Shafer_MEA_dev_active_electrodes_number: CCTE's Neural Network Formation Assay for Number of Active Electrodes, Shafer Lab (AID 2284040)
Records with an inconclusive call do not appear. Activity calls are given as the source filed them. Rule for the calls: active = hit-call score of the fitted dose curve at least 0.9, where 1 is the maximum; inconclusive = response in the unintended direction; inactive = score below 0.9.
Outcomes: TRUE = active, FALSE = inactive

itemSmiles	classAssignment
O=S(=O)(F)C(F)(F)C(F)(F)C(F)(F)C(F)(F)F	FALSE
NC(=O)c1ccc(N)nc1	TRUE
C=CCOC(F)(C(F)(F)F)C(F)(F)F	FALSE
CNC(=O)CSP(=O)(OC)OC	FALSE

---

- assayText: BSK_3C_uPAR: BioMAP Diversity Plus: 3C Assay for Urokinase-type plasminogen activator receptor (uPAR) Biomarker Activity (AID 2282998)
- conditionSet: BioMAP 3C HUVEC, uPAR biomarker ELISA; actives raise or lower the signal
The source made the active and inactive calls. How the source made its calls: active means hit-call score of the fitted dose curve at least 0.9, where 1 is the maximum; inactive means score below 0.9.
Outcomes: active, inactive

compound	classAssignment
O=c1oc2ccccc2c(O)c1C(CC(O)c1ccc(-c2ccc(Br)cc2)cc1)c1ccccc1 (stereo not given)	active
Clc1cccc(Cl)c1	inactive
O=[N+]([O-])c1ccc(Nc2ccccc2)cc1	inactive
Oc1cccc(-c2ccccc2)c1	active
OC(Cc1ccccc1Cl)(Cn1cncn1)C1(Cl)CC1 (stereo not given)	active
CC(C)(COCC1CO1)COCC1CO1 (stereo not given)	inactive
Cc1cc(Cl)ccc1OC(C)C(=O)O (stereo not given)	inactive
O=C(O)COc1cc(Cl)c(Cl)cc1Cl	inactive
CCOP(=S)(OCC)SCS(=O)(=O)C(C)(C)C	inactive
Oc1c(Cl)cc(Cl)cc1Cl	inactive
